# test_system: human GLP-1R (21-139aa region) (Homo sapiens, UniProt P43220)
# Construct: human GLP-1R (21-139aa region); purchased rndsystems.com (R&D Systems) 10956-GL
# experiment_notes: Surface Plasmon Resonance (SPR) binding at hGLP-1R
# assay_setup: His-tagged hGLP-1R on NTA sensor, HBSS
pKd: −log10 of the molar value. Non-standard residues stand in square brackets, D forms with d. No end group written: not given here.
reported_property: pKd

substance="H[dS]QGTFTSDLSKYLEEEVREFIWLKNGGPSDVNTDRPGLLDLK-NH2 [SU75-36]" result_number=3.74
